The compounds listed here are annotated with their cytotoxicity at 10 µM.
test_name: Toxicity liver stage against HepG2, at 10uM
Assay type: cell-based
Parameters: test concentration 10 uM, cell line HepG2-A16-CD81EGFP
assay_conditions: human, HepG2-A16-CD81EGFP cells; read-out: INHIBITION
Dear colleague, please return just the value in %, with no unit written.

The following compounds have reported results that may help.
{"columns": ["compound", "cytotoxicity at 10 µM, %"],
 "data": [
  ["COC(C)(C)CC(C)NC(=O)NC1CCN(Cc2ccccn2)CC1 (stereo not drawn)", 4.83],
  ["CC(C)c1ncc(Cl)c(C(=O)N2CCCN3CCCC3C2)n1 (stereo not drawn)", -10.2],
  ["COc1cc(-c2nccn2C(C)CCn2cccn2)cc2c1OCO2 (stereo not drawn)", 0.562],
  ["c1ccc(-c2nc(CCNc3nnc(C4CCC4)o3)no2)cc1", -3.37],
  ["COC[C@H]1CCC[C@]12CN(S(=O)(=O)c1cccs1)CCO2", -1.34],
  ["COc1ccc(S(=O)(=O)N2CCOC(Cn3ccnc3)C2)cc1 (stereo not drawn)", 7.25]
]}

**Query** Request the reported cytotoxicity at 10 µM associated with "Cc1cnc(N2CCc3c(CNc4ccnc(C)n4)cncc3C2)nc1"
**Result** -39.1

**Query** Another compound: CN(C(=O)CN1CCOC(Cn2cccn2)C1)c1nccs1 (stereo not drawn)
**Result** -14.2

**Query** Check "Cc1nc(NC(=O)COCC(F)(F)F)ccc1Br" too.
**Result** 9.44

**Query** Next up: "CN(C)c1ncnc2c1CCN(C(=O)CN1CCCCC1)C2"
**Result** -0.747

**Query** Follow-up item: CCCc1n[nH]c(C2CN(Cc3ncc[nH]3)CCO2)n1 (stereo not drawn)
**Result** 4.69

**Query** Could you do the same for O=C1Nc2ccccc2C1C1CCN(C(=O)C2CC2)CC1 (stereo not drawn) , please?
**Result** -1.24

**Query** Also check CC(NCc1cnn(C)c1)c1noc(-c2ccc(Cl)cc2)n1 (stereo not drawn)
**Result** 3.97

----------
// cytotoxicity at 10 µM lookup, one value per entry
test_name: Toxicity liver stage against HepG2, at 10uM
Format: cell-based
Parameters: test concentration 10 uM, cell line HepG2-A16-CD81EGFP
assay_conditions: human, HepG2-A16-CD81EGFP cells; read-out: INHIBITION
# output: numeric value plus its unit

Answered examples (4):
{"columns": ["molecule", "cytotoxicity at 10 µM"],
 "data": [
  ["O=C(COCC1CC1)Nc1cc(S(=O)(=O)NC2CC2)ccc1F", "-7.63%"],
  ["O=C1C[C@H]2[C@@H](CCN2C(=O)c2ccccc2)N1CCN1CCOCC1", "-3.33%"],
  ["Cc1ccc(OC2CCN(CCn3cncn3)CC2)cc1", "-1.67%"],
  ["Cc1n[nH]c(C)c1-c1cc(-c2cc[nH]c2)nc(N)c1C#N", "2.41%"]
]}

**Query** Find the recorded cytotoxicity at 10 µM belonging to O=C(C1CCC1)N1CCCC(c2cccc(-n3ccnc3)n2)C1 (stereo unspecified) and report it.
**Result** -1.28%

**Query** Next: CCN1C(=O)CC(c2cccnc2)C12CCN(c1ncc(F)cn1)CC2 (stereo unspecified)
**Result** -8.59%
